# System: waterhemp
# method-summary: Test C postemergence
# Assay type: in vivo, Amaranthus rudis
# experimental-setup: 125 g ai/ha, postemergence
Would you kindly list Plant response rating (0 to 100), Waterhemp for each of these compounds?
Simply state the number, no unit and no words.

Task: Look up Plant response rating (0 to 100), Waterhemp: CCOc1cnn(-c2c(C#N)cccc2Oc2ncc(F)cn2)c1 [Compound 89]
Output: 60

Task: Item: N#Cc1cccc(Oc2ncc(F)cn2)c1-n1cc(I)cn1 [Compound 86]
Output: 75

Task: Here is the next compound: N#Cc1cccc(Oc2ncc(Br)cn2)c1-n1cc(I)cn1 [Compound 88]
Output: 90

Task: Okay, and Clc1cnc(Oc2cccc(Br)c2-n2cc(Br)cn2)nc1 [Compound 65] ?
Output: 90

Task: Same thing, different compound: N#Cc1cccc(Oc2ncc(Cl)cn2)c1-n1cnc(Br)c1 [Compound 74]
Output: 60

###

# System: chamomile
# method-summary: Test D preemergence
# Assay type: in vivo, Matricaria inodora
# experimental-setup: Tripleurospermum inodorum, pre-emergence, 125 g ai/ha, scale 0-100, read-out: Plant response rating, Chamomile
Could you please report measured pest or weed control at 125 g/ha for the items listed next?
// units = %; emit number, no label

Task: Hi! What's the reported pest or weed control at 125 g/ha for Fc1cccc(Oc2ncc(Cl)cn2)c1-n1cc(Br)cn1 on chamomile?
Output: 60

Task: Please answer likewise for N#Cc1cccc(Oc2ncc(Cl)cn2)c1-n1cc(C(F)(F)F)cn1
Output: 80

Task: Same again, this time with N#Cc1cccc(Oc2ncc(Br)cn2)c1-n1cc(C(F)(F)F)cn1
Output: 95

Task: Queued: Clc1cnc(Oc2ccccc2-n2cc(Br)cn2)nc1
Output: 20

###

Exercise: for every item that follows, state its recorded Foxtail, Green plant response rating.
# Tested on: green foxtail
# method-summary: Test E preemergence
# Type: in vivo, Setaria viridis
# experimental-setup: 16 g ai/ha, scale 0 to 100 (0 no effect, 100 complete control)
Lab note: write the figure by itself, no unit.

Task: Given the entry FC(F)(F)c1cnn(-c2ccccc2Oc2ncc(Br)cn2)c1 , report its measured Foxtail, Green plant response rating.
Output: 0

Task: What do you have for N#Cc1cccc(Oc2ncc(F)cn2)c1-n1cc(Cl)cn1 ?
Output: 0

Task: Same thing, different compound: N#Cc1cccc(Oc2ncc(Br)cn2)c1-n1cc(I)cn1
Output: 0

Task: Proceed to FC(F)(F)c1cnn(-c2ccccc2Oc2ncc(Cl)cn2)c1
Output: 0

Task: How about N#Cc1cccc(Oc2ncc(F)cn2)c1-n1cc(I)cn1 ?
Output: 0

Task: Record: N#Cc1cccc(Oc2ncc(Cl)cn2)c1-n1cc(C(F)(F)F)cn1
Output: 65

###

# Tested on: barnyardgrass
# method-summary: Test A postemergence
# Format: in vivo, Echinochloa crus-galli
# experimental-setup: Echinochloa crus-galli, post-emergence, 240 h, 500 g ai/ha, 0 to 100 scale where 0 is no effect and 100 is complete control, read-out: Plant response rating, Barnyardgrass
quantity-kind: pest or weed control at 500 g/ha (%)
Return type: number; implicit unit %.

Task: What value of measured pest or weed control at 500 g/ha is listed for FC(F)(F)COc1cnn(-c2ccccc2Oc2ncc(Cl)cn2)c1 [Compound 138] ?
Output: 100

Task: Request: FC(F)(F)Sc1cnn(-c2ccccc2Oc2ncc(Cl)cn2)c1 [Compound 132]
Output: 70

Task: Can you check FC(F)(F)c1cn(-c2ccccc2Oc2ncc(Cl)cn2)nn1 [Compound 166] next?
Output: 100

Task: Try this molecule too: N#Cc1cccc(Oc2ncc(Cl)cn2)c1-n1cnc(C(F)(F)F)c1 [Compound 252]
Output: 100

###

Can you tell me Plant response rating, Barnyardgrass for the items I'm about to list?
# System: barnyardgrass
# method-summary: Test A postemergence
# Assay type: in vivo, Echinochloa crus-galli
# experimental-setup: 31 g ai/ha, 0 to 100 scale, 0 no effect, 100 complete control
Form field (numeric): enter value without unit.

Task: Return Plant response rating, Barnyardgrass measured with barnyardgrass given this molecule: FC(F)(F)COc1cnn(-c2c(Br)cccc2Oc2ncc(Cl)cn2)c1 [Compound 128]
Output: 10

Task: # repeat for Fc1cnc(Oc2cccc(Cl)c2-n2cc(OCC(F)(F)F)cn2)nc1 [Compound 109]
Output: 10

Task: Follow-up entry: CC(C)Cc1cn(-c2c(F)cccc2Oc2ncc(Cl)cn2)nn1 [Compound 107]
Output: 0

Task: Here is the next molecule: Cc1cc(C(F)F)nn1-c1ccccc1Oc1ncc(Cl)cn1 [Compound 267]
Output: 0

Task: For Clc1cnc(Oc2ccccc2-n2cccc2)nc1 [Compound 269] then?
Output: 0

Task: Proceed to N#Cc1cccc(Oc2ncc(Cl)cn2)c1-n1ccnc1 [Compound 261]
Output: 0

Task: Continue with CC(C)Oc1cnn(-c2c(Br)cccc2Oc2ncc(Cl)cn2)c1 [Compound 148]
Output: 0

Task: Also, Cc1cc(C)n(-c2ccccc2Oc2ncc(Cl)cn2)n1 [Compound 264] please.
Output: 0

Task: Now the same for FCc1cccc(Oc2ncc(Cl)cn2)c1-n1cc(C(F)(F)F)cn1 [Compound 119]
Output: 40

###

# System: rice
# method-summary: Test C flooded paddy test
# Format: in vivo, Oryza sativa
# experimental-setup: Flood, 62 g ai/ha; scale 0 to 100 (0 no effect, 100 complete control), 13 to 15 days
For each of the molecules below, state its Plant response rating, Rice.
Lab note: jot the number down without any unit.

Task: Need Plant response rating, Rice of FC(F)(F)c1cnn(-c2ccccc2Oc2ncc(Br)cn2)c1 , thanks.
Output: 0

Task: What do we get for CON=Cc1cccc(Oc2ncc(Cl)cn2)c1-n1cc(Br)cn1 ?
Output: 20

Task: Would you kindly repeat that for FC(F)(F)c1cnn(-c2c(Cl)cccc2Oc2ncc(Cl)cn2)c1 ?
Output: 0

Task: Another molecule: CCOc1cnn(-c2c(C#N)cccc2Oc2ncc(F)cn2)c1
Output: 0

Task: Now give it for N#Cc1cccc(Oc2ncc(Br)cn2)c1-n1cc(C(F)(F)F)cn1 too.
Output: 15

Task: Param item: CCCOc1cnn(-c2c(C#N)cccc2Oc2ncc(Cl)cn2)c1
Output: 0

Task: Please give the result for Clc1cnc(Oc2ccccc2-n2cc(Cl)cn2)nc1 too.
Output: 0

###

# Tested on: waterhemp
# method-summary: Test C postemergence
# Format: in vivo, Amaranthus rudis
# experimental-setup: 125 g ai/ha, postemergence; visual rating, scale 0 to 100 (0 no effect, 100 complete control)
Give Plant response rating, Waterhemp for every item shown.
Quick one: just the number, no unit, thanks!

Task: Reported Plant response rating, Waterhemp for N#Cc1cn(-c2c(Br)cccc2Oc2ncc(Cl)cn2)nn1 : what is it?
Output: 95

Task: Entry FCc1cccc(Oc2ncc(Br)cn2)c1-n1cc(C(F)(F)F)cn1 please
Output: 85

Task: Another compound to check: Cc1cnc(Oc2cccc(C#N)c2-n2cc(I)cn2)nc1
Output: 30

Task: Same question for Clc1cnc(Oc2cccc(Br)c2-n2cc(Br)nn2)nc1 please.
Output: 85

Task: Can you handle Fc1cccc(Oc2ncc(Cl)cn2)c1-n1cc(C2CC2)nn1 next?
Output: 98

Task: Please do the same for N#Cc1cnn(-c2c(Oc3ncc(Cl)cn3)cccc2C(F)F)c1 as well.
Output: 90

Task: And for N#Cc1cccc(Oc2ncc(Cl)cn2)c1-n1cc(-n2ccc(C(F)(F)F)n2)cn1 ?
Output: 98

###

Record form. Attribute: Morningglory plant response rating. Fill in for each entry.
# Tested on: morningglory
# method-summary: Test C preemergence
# Assay type: in vivo, Ipomoea coccinea
# experimental-setup: 62 g ai/ha, preemergence; scale 0 (no effect) to 100 (complete control)
# Text: […]
Lab note: record the figure alone, no unit after it.

Task: Consider the molecule shown here: N#Cc1cn(-c2c(Br)cccc2Oc2ncc(Cl)cn2)nn1 What is its recorded Morningglory plant response rating?
Output: 20

Task: Now this one: Fc1cccc(Oc2ncc(Cl)cn2)c1-n1cc(I)cn1
Output: 35

Task: Next molecule: N#Cc1cccc(Oc2ncc(F)cn2)c1-n1cc(Cl)cn1
Output: 45

Task: Then what about the molecule N#Cc1cccc(Oc2ncc(F)cn2)c1-n1cc(I)cn1 ?
Output: 60

###

# Tested on: oilseed rape
# method-summary: Test C preemergence
# Assay type: in vivo, Brassica napus
# experimental-setup: Preemergence, 31 g ai/ha; scale 0 to 100, 0 no effect, 100 complete control
Give measured Plant response rating, Oilseed Rape for each item. Keep answers brief.
Please give the numeric answer without any surrounding text.

Task: Consider the compound shown here: N#Cc1cccc(Oc2ncc(F)cn2)c1-n1cc(I)cn1 What is its recorded Plant response rating, Oilseed Rape?
Output: 100

Task: Would you kindly repeat that for CCOc1cn(-c2c(Br)cccc2Oc2ncc(Cl)cn2)nn1 ?
Output: 85

Task: Request: CCOc1cnn(-c2c(C#N)cccc2Oc2ncc(F)cn2)c1
Output: 80

Task: # repeat for N#Cc1cccc(Oc2ncc(Br)cn2)c1-n1cc(I)cn1
Output: 100

Task: Same again, this time with FCc1cccc(Oc2ncc(Cl)cn2)c1-n1cc(Br)cn1
Output: 95

Task: // query: CCOc1cnn(-c2c(C#N)cccc2Oc2ncc(Cl)cn2)c1
Output: 80

All figures here come from patent US9695155B2.
